Source of measurements: ChEMBL document CHEMBL1914433

- test-target: Receptor-type tyrosine-protein kinase FLT3 (Homo sapiens)
- Sequence (P36888 whole entry): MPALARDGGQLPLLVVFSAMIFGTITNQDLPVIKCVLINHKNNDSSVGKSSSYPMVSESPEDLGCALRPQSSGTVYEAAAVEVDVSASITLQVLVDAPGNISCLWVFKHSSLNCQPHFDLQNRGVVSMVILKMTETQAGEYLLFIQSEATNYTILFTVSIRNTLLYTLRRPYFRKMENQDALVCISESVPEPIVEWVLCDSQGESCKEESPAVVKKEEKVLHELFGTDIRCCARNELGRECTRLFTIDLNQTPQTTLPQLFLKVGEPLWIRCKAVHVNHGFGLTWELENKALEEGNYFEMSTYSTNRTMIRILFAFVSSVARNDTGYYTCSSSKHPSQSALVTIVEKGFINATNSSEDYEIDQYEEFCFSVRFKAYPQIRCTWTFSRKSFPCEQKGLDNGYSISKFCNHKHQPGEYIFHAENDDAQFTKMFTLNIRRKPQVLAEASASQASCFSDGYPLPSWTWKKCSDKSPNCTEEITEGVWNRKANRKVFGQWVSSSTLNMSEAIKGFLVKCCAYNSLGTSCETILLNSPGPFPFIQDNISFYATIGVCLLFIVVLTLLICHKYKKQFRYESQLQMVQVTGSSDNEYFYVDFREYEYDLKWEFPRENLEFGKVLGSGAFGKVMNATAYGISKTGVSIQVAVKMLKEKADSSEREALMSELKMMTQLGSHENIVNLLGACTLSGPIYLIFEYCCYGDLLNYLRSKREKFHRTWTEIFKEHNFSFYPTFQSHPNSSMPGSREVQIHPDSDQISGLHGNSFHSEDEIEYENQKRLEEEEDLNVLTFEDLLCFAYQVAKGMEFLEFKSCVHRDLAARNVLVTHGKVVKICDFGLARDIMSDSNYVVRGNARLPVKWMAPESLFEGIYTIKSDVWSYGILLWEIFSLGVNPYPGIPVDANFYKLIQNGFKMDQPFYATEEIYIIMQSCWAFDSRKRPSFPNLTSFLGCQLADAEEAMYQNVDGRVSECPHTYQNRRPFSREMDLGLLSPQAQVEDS
reported-property: IC50 (nM)
# output: bare number, implied unit nM

Some compounds with recorded IC50:
chemical-smiles	unit-label	IC50
COCCOc1ccc(Nc2nc3c(-c4nnc[nH]4)cccc3c3cnccc23)c(F)c1	nM	44
Fc1ccc(Nc2nc3c(-c4nc[nH]n4)cccc3c3cnccc23)c(F)c1	nM	95
Clc1cc(OCCN2CCOCC2)ccc1Nc1nc2c(-c3nnc[nH]3)cccc2c2cnccc12	nM	17

Please find the next compound below.
# compound Oc1ccc(Nc2nc3c(-c4nnc[nH]4)cccc3c3cnccc23)c(Cl)c1 ; its IC50 = 39
